# EXPERIMENTAL_TARGET: PRC2/EZH2+/+ (Homo sapiens, UniProt Q15910)
# Construct: purchased Active Motif
# PROTOCOL: Kinetic probe competition assay (kPCA), TR-FRET
# Assay type: binding
# CONDITION_DETAILS: EZH2+/+ (- H3K27me3), 37 °C; read-out: Kd (Kinetic)
METRIC_NAME: pKd
Remember the convention: pKd equals -log10 of concentration in molar.

Report pKd for "Cc1cc(C)c(CN2CCc3c(Cl)cc(-c4c(C)noc4C)c(Cl)c3C2=O)c(=O)[nH]1"
8.62

---

Answer each item with its documented IC50.
# EXPERIMENTAL_TARGET: PRC2/EZH2Y111D (Homo sapiens, UniProt Q15910, Y111D)
# Construct: N-terminal 6His-tagged full length EZH2^Y641N, EZH2^Y111L, EZH2^Y111D; 6His (N); made in house; host or cells: Sf9 insect cells (baculovirus co-infection)
# PROTOCOL: Scintillation proximity assay (SPA) of H3K27 methylation
# Type: biochemical
# CONDITION_DETAILS: 60' enzyme:inhibitor pre-incubation; read-out: SPA Mean IC50 (M) - 60' enzyme:inhibitor pre-incubation EZH2Y111D
# Method: Assay-ready plates containing 50 nl of compound dilutions and DMSO controls were filled with 2.5 µL enzyme solution and pre-incubated for 15 min. […] Experiments were also performed without pre-incubation of enzyme and compounds. In this case, the substrate solution was added before enzyme. The reaction was stopped using 1.6 µg/µl streptavidin beads (Perkin Elmer) and 700 µM of SAM (Perkin Elmer). The plates were sealed with transparent foil. […]
# number only, unit M dropped from output

# return recorded IC50 for input "Cc1cc(C)c(CN2CCc3c(Cl)cc(-c4c(C)noc4C)c(Cl)c3C2=O)c(=O)[nH]1"
1.3e-05

Identify measured IC50 associated with "CCCc1cc(C)[nH]c(=O)c1CNC(=O)c1cc(-c2ccc(N3CCN(C(C)C)CC3)nc2)cc2c1cnn2C(C)C"
3.2e-06

---

# Tested on: KARPAS-422 cells
# PROTOCOL: Cellular proliferation assay (AlamarBlue, 144 h)
# Type: cell-based
# CONDITION_DETAILS: KARPAS-422 cells, 6-day (144 h), AlamarBlue; read-out: KARPAS (6-day) Anti-proliferation IC50
METRIC_NAME: IC50 (µM)
Give the value, in units of µM, as a plain number.

Fill in IC50 for record "CC[C@H](C)n1cc(C)c2c(C(=O)NCc3c(C)cc(C)[nH]c3=O)cc(-c3ccc(N4CCNCC4)nc3)cc21"
0.28

---

# PROTOCOL: in vitro
# Type: in vitro ADME
# CONDITION_DETAILS: human, Caco-2, pH 7.2; 2 µM, 2 h, 37 °C, basolateral to apical; read-out: PK Caco-2 Flux Papp B-A (mean)
METRIC_NAME: Papp B→A at 2 h, 2 µM (×10⁻⁶ cm/s)
Return type: number; implicit unit ×10⁻⁶ cm/s.

Please report the measured Papp B→A at 2 h, 2 µM for CCCc1cc(C)[nH]c(=O)c1CNC(=O)c1cc(-c2ccc(N3CCN(C(C)C)CC3)nc2)cc2c1cnn2C(C)C [Compound 9, UNC1999]
12.6

Using the record for Cc1cc(C)c(CNC(=O)c2cc(Cl)c3c(c2C)O[C@@](C)([C@H]2CC[C@H](N(C)C)CC2)O3)c(=O)[nH]1 [Compound 31, DS-3201] , state its measured Papp B→A at 2 h, 2 µM.
20.9

Recall and state the measured Papp B→A at 2 h, 2 µM for Cc1cc(C)c(CN2CCc3c(Cl)cc(-c4c(C)noc4C)c(Cl)c3C2=O)c(=O)[nH]1 [Compound 14] .
17.4

Tell me measured Papp B→A at 2 h, 2 µM for CCN(c1cc(-c2ccc(CN3CCOCC3)cc2)cc(C(=O)NCc2c(C)cc(C)[nH]c2=O)c1C)C1CCOCC1 [Compound 2, Tazemetostat] please.
28.1

Specify measured Papp B→A at 2 h, 2 µM for CCS(=O)(=O)N1CCC([C@@H](C)n2c(C)c(C(=O)NCc3c(OC)cc(C)[nH]c3=O)c3ccccc32)CC1 [Compound 10, CPI-169] .
14.7
